Molecular target: Human complement C1s enzyme (Homo sapiens, UniProt P09871)
Construct: purified from human serum, Complement Technology, Inc; purchased Complement Technology, Inc; host or cells: human serum
Sequence (P09871 438-688 limits assumed): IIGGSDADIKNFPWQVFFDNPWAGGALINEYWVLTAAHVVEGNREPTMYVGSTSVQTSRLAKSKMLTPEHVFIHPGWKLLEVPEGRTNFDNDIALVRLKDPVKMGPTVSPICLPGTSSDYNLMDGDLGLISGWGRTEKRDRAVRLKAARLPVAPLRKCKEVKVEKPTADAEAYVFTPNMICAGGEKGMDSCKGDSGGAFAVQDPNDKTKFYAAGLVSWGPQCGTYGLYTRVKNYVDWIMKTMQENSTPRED
Sequence (P09871 16-437 partner limits assumed): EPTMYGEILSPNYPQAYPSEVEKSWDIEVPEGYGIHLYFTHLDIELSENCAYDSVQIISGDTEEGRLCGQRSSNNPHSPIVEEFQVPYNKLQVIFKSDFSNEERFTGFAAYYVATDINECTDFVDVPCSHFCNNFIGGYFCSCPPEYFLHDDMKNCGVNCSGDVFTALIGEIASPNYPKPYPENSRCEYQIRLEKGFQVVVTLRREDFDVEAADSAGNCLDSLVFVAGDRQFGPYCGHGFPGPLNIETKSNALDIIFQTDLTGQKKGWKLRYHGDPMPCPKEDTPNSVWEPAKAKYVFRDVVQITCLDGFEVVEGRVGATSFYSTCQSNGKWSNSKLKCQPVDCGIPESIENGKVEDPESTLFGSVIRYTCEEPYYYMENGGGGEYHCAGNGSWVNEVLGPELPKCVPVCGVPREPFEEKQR
Experiment: Human C1s Enzyme Assay
Type: biochemical
Settings: read-out: C1s Protease Activity; human C1s 1.16 nM, 5 min preincubation, substrate Z-L-Lys-SBzl 100 μM, A405
measurement name: IC50

Lookup: Using the record for N=C(N)c1csc(CNC(=O)C23CCC(CC2)N3C(=O)CNC(=O)CCCOc2ccccc2)c1 [Compound 30] , state its measured IC50.
Found: < 100 nM

---

Collected pIC50 values appear next to each entry.
Molecular target: Human complement C1s enzyme (Homo sapiens)
Construct: purified from human serum, Complement Technology, Inc; purchased Complement Technology, Inc; host or cells: human serum
Assay: Human C1s Enzyme Assay
Format: biochemical
Settings: human C1s 1.16 nM, 5 min preincubation, substrate Z-L-Lys-SBzl 100 μM, A405; read-out: C1s Protease Activity
pIC50: −log10 of the molar value.

Worked cases, answers included:
compound	pIC50
N=C(N)c1csc(CNC(=O)[C@@H]2C[C@H](C3CCCC3)CN2C(=O)CNC(=O)c2ccc(Oc3ccccc3)cc2)c1 [Compound 260]	> 7.00
C[C@@H](NC(=O)[C@@H]1CC2(CC2)CN1C(=O)CNC(=O)CCCOc1ccccc1)c1cc(C(=N)N)cs1 [Compound 116]	> 7.00
C/N=C(/NC)c1csc(CNC(=O)[C@@H]2C[C@]3(C)C[C@@H]3N2C(=O)CNC(=O)c2ccc(Oc3ccccc3)cc2)c1 [Compound 222]	< 6.00
COC[C@@H](NC(=O)[C@@H]1C[C@@H](OC(F)F)CN1C(=O)CNC(=O)c1ccc(Oc2ccccc2)cc1)c1cc(C(=N)N)cs1 [Compound 213]	< 6.00
N=C(N)c1csc(CNC(=O)[C@@H]2C=CCN2C(=O)CNC(=O)CCCOc2ccc(S(F)(F)(F)(F)F)cc2)c1 [Compound 95]	6.00 to 7.00

Below: the item to evaluate.
Lookup: Using the record for C[C@@]12C[C@@H]1N(C(=O)CNC(=O)c1ccc(Oc3ccccc3)cc1)[C@H](C(=O)N1CCc3c(C(=N)N)csc3C1)C2 [Compound 112] , state its measured pIC50.
Found: 6.00 to 7.00
